molecular target: MCHR1; experiment: MCHR1 antagonist potency, late-stage follow-up, selectivity assay for GPR7 antagonist project, cell-based, fluorescence, dose response, set 2 (AID 504889); details: MCHR1-expressing cells, antagonist mode, run 1
The source made the active and inactive calls. How the calls were made is not given here.
Classes used: t for active, f for inactive

>>> assigned_label("CCC(C)c1ccc(-n2ncc(Cl)c(Oc3ccc(OC)cc3)c2=O)cc1 (stereo not given)")
"t"
>>> assigned_label("COc1ccc(Oc2c(Cl)cnn(-c3cccc(C(C)C)c3)c2=O)cc1")
"t"
>>> assigned_label("Cc1ccc(-n2ncc(Cl)c(Oc3ccc(CO)cc3)c2=O)cc1")
"f"
>>> assigned_label("COc1ccc(Oc2c(Cl)cnn(-c3ccc(C(C)C)c(C)c3)c2=O)cc1")
"t"
>>> assigned_label("COc1ccc(Oc2c(-c3cccs3)cnn(-c3ccc(C)cc3)c2=O)cc1")
"f"
>>> assigned_label("COC(=O)c1cnn(-c2ccc(C(C)C)cc2)c(=O)c1Oc1ccc(OC)cc1")
"t"
>>> assigned_label("COc1ccc(Oc2c(C#N)cnn(-c3ccc(C(C)C)cc3)c2=O)cc1")
"t"
>>> assigned_label("COc1ccc(Oc2c(Cl)cnn(-c3cc(C)cc(C)c3)c2=O)cc1")
"t"
>>> assigned_label("CCc1ccc(Oc2c(Cl)cnn(-c3ccc(C)cc3)c2=O)cc1")
"t"
>>> assigned_label("CCOc1ccc(Oc2c(Cl)cnn(-c3ccc(C)cc3)c2=O)cc1")
"f"

----------
target: MCHR1; test: MCHR1 antagonist potency, late-stage follow-up, selectivity assay for GPR7 antagonist project, cell-based, fluorescence, dose response, set 2 (AID 504889); settings: MCHR1-expressing cells, antagonist mode, run 1
The source made the active and inactive calls. No rule for the calls is given here.
Classes used: active, inactive

>>> assigned_label("CCc1ccc(-n2ncc(Cl)c(Oc3ccc(OC)cc3)c2=O)cc1")
"active"
>>> assigned_label("COc1ccc(Oc2c(C3CC3)cnn(-c3ccc(C)cc3)c2=O)cc1")
"active"
>>> assigned_label("COc1ccc(Oc2c(-c3ccco3)cnn(-c3ccc(C)cc3)c2=O)cc1")
"inactive"
>>> assigned_label("COc1ccc(Oc2c(-c3ccccc3)cnn(-c3ccc(C)cc3)c2=O)cc1")
"inactive"
>>> assigned_label("COc1ccc(Oc2c(Cl)cnn(-c3ccc(C(C)(C)C)cc3)c2=O)cc1")
"active"
>>> assigned_label("COc1ccc(Oc2c(C=O)cnn(-c3ccc(C(C)C)cc3)c2=O)cc1")
"active"
>>> assigned_label("Cc1ccc(-n2ncc(Cl)c(Oc3ccc(C(F)(F)F)cc3)c2=O)cc1")
"active"
>>> assigned_label("COc1ccc(Oc2c(Cl)cnn(-c3ccc(C)cc3)c2=O)cc1")
"inactive"
>>> assigned_label("COc1ccc(Oc2c(Cl)cnn(-c3ccc(C(C)C)cc3)c2=O)cc1")
"active"
>>> assigned_label("COc1ccc(Oc2c(Cl)cnn(-c3cccc4ccccc34)c2=O)cc1")
"active"

----------
target: MCHR1; assay: MCHR1 antagonist potency, late-stage follow-up, selectivity assay for GPR7 antagonist project, cell-based, fluorescence, dose response, set 2 (AID 504889); conditions: MCHR1-expressing cells, antagonist mode, run 2
Activity calls are given as the source filed them. The rule behind the calls is not given here.
Outcome codes: label 1 for active, label 0 for inactive

>>> assigned_label("COc1ccc(Oc2c(Cl)cnn(-c3cccc(C(C)C)c3)c2=O)cc1")
"label 1"
>>> assigned_label("COc1ccc(Oc2c(Cl)cnn(-c3ccc(C(C)C)c(C)c3)c2=O)cc1")
"label 1"
>>> assigned_label("COC(=O)c1cnn(-c2ccc(C(C)C)cc2)c(=O)c1Oc1ccc(OC)cc1")
"label 1"
>>> assigned_label("CCc1ccc(-n2ncc(Cl)c(Oc3ccc(OC)cc3)c2=O)cc1")
"label 0"
>>> assigned_label("COc1ccc(Oc2c(-c3ccco3)cnn(-c3ccc(C)cc3)c2=O)cc1")
"label 0"
>>> assigned_label("COc1ccc(Oc2c(C=O)cnn(-c3ccc(C(C)C)cc3)c2=O)cc1")
"label 1"
